Assay: Tested in vitro against HCMV AD-169 strain in MRC-5 cells
Format: ADME, organism-based, MRC5
Conditions: human betaherpesvirus 5, MRC-5 cells; read-out: TC50 (the source's name)
// CC50 lookup, one value per entry
Give the quantity in µM, number only.

* Nc1nc(O)c2ncn(C[C@H](CCF)OCP(=O)(O)O)c2n1 | 300
* Nc1nc2c(ncn2CCOCP(=O)(O)O)c(=O)[nH]1 [GS-438] | 30
* [N-]=[N+]=NCC[C@@H](Cn1cnc2c(O)nc(N)nc21)OCP(=O)(O)O | 300

CC50 lookup needed for `CC[C@@H](Cn1cnc2c(O)nc(N)nc21)OCP(=O)(O)O` , thanks. 300

---

Test: Tested in vitro against HCMV from WI-38 cells
Type: organism-based
Settings: human betaherpesvirus 5, WI-38 cells; read-out: TC50 (the source's name)
quantity: CC50

Example entries and their recorded answers appear below.
* C=C[C@H](Cn1cnc2c(O)nc(N)nc21)OCP(=O)(O)O | > 300 µM
* CC[C@H](Cn1cnc2c(O)nc(N)nc21)OCP(=O)(O)O | > 300 µM

Switching to the query record.
CC50 lookup needed for `Nc1nc(O)c2ncn(C[C@H](OCP(=O)(O)O)C3CC3)c2n1` , thanks. > 300 µM

---

Test: Toxic concentration, in CEM cells estimated by the XTT assay
Format: toxicity, cell-based
Conditions: human, CCRF-CEM (CEM) cells; read-out: TC50 (the source's name)
quantity: CC50

Example entries and their recorded answers appear below.
- CC[C@@H](Cn1cnc2c(O)nc(N)nc21)OCP(=O)(O)O: > 500 µM
- Nc1nc(O)c2ncn(C[C@@H](CCO)OCP(=O)(O)O)c2n1: > 450 µM
- C[C@H](Cn1cnc2c(O)nc(N)nc21)OCP(=O)(O)O: > 500 µM

CC50 lookup needed for `Nc1nc(O)c2ncn(C[C@H](CCO)OCP(=O)(O)O)c2n1` , thanks. > 500 µM

---

Tested on: Human betaherpesvirus 5
Test: Tested in vitro against HCMV AD-169 strain in MRC-5 cells
Format: functional, organism-based
Conditions: Human betaherpesvirus 5, MRC5
quantity: pIC50
pIC50 (log units): -log10 of the concentration in mol/L.

Example entries and their recorded answers appear below.
* C[C@@H](Cn1cnc2c(O)nc(N)nc21)OCP(=O)(O)O | 4.80
* [N-]=[N+]=NCC(Cn1cnc2c(O)nc(N)nc21)OCP(=O)(O)O (single isomer, unassigned; form 2) | 4.82
* Nc1nc(O)c2ncn(C[C@H](CCO)OCP(=O)(O)O)c2n1 | 3.79

Switching to the query record.
pIC50 lookup needed for `Nc1nc2c(ncn2CCOCP(=O)(O)O)c(=O)[nH]1` , thanks. 7.05

---

// pIC50 lookup, one value per entry
System: Human betaherpesvirus 5
Experiment: Tested in vitro against HCMV AD-169 strain in MRC-5 cells
Type: functional, organism-based
Conditions: Human betaherpesvirus 5, MRC5
pIC50 (log units): -log10 of the concentration in mol/L.

Example entries and their recorded answers appear below.
- [N-]=[N+]=NCC(Cn1cnc2c(O)nc(N)nc21)OCP(=O)(O)O (single isomer, unassigned; form 1): 4.48
- Nc1nc(O)c2ncn(CC(CF)OCP(=O)(O)O)c2n1 (single isomer, unassigned; form 1): 3.87

pIC50 lookup needed for Nc1nc(O)c2ncn(CC(CF)OCP(=O)(O)O)c2n1 (single isomer, unassigned; form 2) , thanks. 3.82

pIC50 lookup needed for `C[C@H](Cn1cnc2c(O)nc(N)nc21)OCP(=O)(O)O` , thanks. 4.80

pIC50 lookup needed for Nc1nc(O)c2ncn(CC(CO)OCP(=O)(O)O)c2n1 (single isomer, unassigned; form 2) , thanks. 6.10

pIC50 lookup needed for Nc1nc(O)c2ncn(CC(CCl)OCP(=O)(O)O)c2n1 (single isomer, unassigned; form 1) , thanks. 4.29

pIC50 lookup needed for Nc1nc2c(ncn2CC(CO)OCP(=O)(O)O)c(=O)[nH]1 (single isomer, unassigned; form 1) , thanks. 5.80

pIC50 lookup needed for Nc1nc(O)c2ncn(CC(CCl)OCP(=O)(O)O)c2n1 (single isomer, unassigned; form 2) , thanks. 3.95
